Where these numbers come from: paper PMC8400955

experiment: 4-week repeat-dose toxicity/TK study in rats; type: in vivo, Sprague Dawley rats; details: female, Sprague Dawley (Crl: CD (SD)), rat, plasma, po, 100 mg/kg/day, day 28, PO 100 mg/kg/day, Female

{"compound": "C[C@]12CC[C@@H]3c4ccc(B(O)O)cc4C[C@@H](CCCCCCCCC[S+]([O-])CCCC(F)(F)C(F)(F)F)[C@H]3[C@@H]1CC[C@@H]2O (stereo partly shown) [ZB716, fulvestrant-3-boronic acid]", "Cmax / ng/mL": 3850}

* * *

tested on: CYP2B6; assay: CYP induction (enzyme activity) in cryopreserved human hepatocytes, CYP2B6; conditions: human, plated cryopreserved human hepatocytes, Fold Induction, donor three, 5 µM

{"compound": "C[C@]12CC[C@@H]3c4ccc(B(O)O)cc4C[C@@H](CCCCCCCCC[S+]([O-])CCCC(F)(F)C(F)(F)F)[C@H]3[C@@H]1CC[C@@H]2O (stereo partly shown)", "fold induction at 72 h, 5 µM": 2.98}
